- Measured on: BCL-XLΔC (Homo sapiens)
- Sequence (Q07817 1-212 limits assumed, stated change not applied): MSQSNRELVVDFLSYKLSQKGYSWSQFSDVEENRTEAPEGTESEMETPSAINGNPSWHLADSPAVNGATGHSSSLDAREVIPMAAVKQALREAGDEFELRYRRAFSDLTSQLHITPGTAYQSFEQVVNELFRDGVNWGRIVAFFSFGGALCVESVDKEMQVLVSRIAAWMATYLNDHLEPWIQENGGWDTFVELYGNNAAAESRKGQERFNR
- Test description: High-throughput competitive FP binding screen, FITC-BAD BH3/BCL-XLΔC interaction
- Experimental parameters: FITC-BAD BH3/BCL-XLΔC interaction pair, competitive FP screen
As shown below, each of these molecules has a reported BCL-XL % Bound value.
Measurement name: BCL-XL % Bound (%)

INSERT INTO measurements (molecule, measurement_name, result_units, recorded_number) VALUES
  ('CC1(C)c2ssc(=S)c2-c2ccccc2N1C(=O)CSC#N', 'BCL-XL % Bound', '%', 93.06),
  ('O=c1c(O)c(-c2ccc(O)c(O)c2)oc2cc(O)cc(O)c12 [drawing 15]', 'BCL-XL % Bound', '%', 105.3),
  ('CC(C)(C)c1cc(Cc2ccc(O)c(O)c2)cc(C(C)(C)C)c1O', 'BCL-XL % Bound', '%', 96.57),
  ('CC1=C(C#N)C(=O)N(CC(C)O)C(=O)/C1=C/c1ccc(-c2ccc(Cl)cc2)o1 (centres unmarked)', 'BCL-XL % Bound', '%', 89.37),
  ('O=C1C=CC(=O)C(CCCCCCC2=CC(=O)C=CC2=O)=C1', 'BCL-XL % Bound', '%', 106.5);

* * *

- Test system: MCL-1ΔNΔC
- Test description: High-throughput competitive FP binding screen, FITC-MCL-1 SAHB/MCL-1ΔNΔC interaction
- Experimental parameters: selectivity for MCL-1ΔNΔC over BCL-XLΔC targeting (BCL-XL % Bound minus MCL-1 % Bound)
As shown below, each of these molecules has a reported Spec Values value.
Measurement name: Spec Values

INSERT INTO measurements (molecule, measured_on, recorded_number) VALUES
  ('CN1CCCN(Cc2cc(C(C)(C)C)c(O)c(C(C)(C)C)c2)CC1', 'MCL-1ΔNΔC', 58.29),
  ('O=C1C2=C(C(=O)c3ccccc31)C(c1ccccc1O)c1sc(=O)[nH]c1S2 (stereo not drawn)', 'MCL-1ΔNΔC', 58.45),
  ('N#CC1=C(c2ccc(Cl)cc2)COC1=O', 'MCL-1ΔNΔC', 60.84);

* * *

As shown below, each of these compounds has a reported BCL-XL % Bound value.
- Measured on: UniProt Q07817
- Test description: High-throughput competitive FP binding screen, FITC-BAD BH3/BCL-XLΔC interaction
- Experimental parameters: FITC-BAD BH3/BCL-XLΔC interaction pair, competitive FP screen
Measurement name: BCL-XL % Bound (%)

INSERT INTO results (compound, measured_on, recorded_number) VALUES
  ('CCOc1cccc(CNc2ccc(N3CCCC3)cc2)c1', 'UniProt Q07817', 82.24),
  ('O=C(/C=C/c1ccco1)Nc1ccc(Br)cc1', 'UniProt Q07817', 96.9),
  ('Cc1ccccc1-c1nnc(SCC(=O)NC(=O)Nc2ccccc2F)n1C', 'UniProt Q07817', 98.1),
  ('CCCOC(=O)c1cc(-c2ccc(/C=C3\C(=O)N(CCCO)C(=O)C(C#N)=C3C)o2)ccc1Cl', 'UniProt Q07817', 75.5),
  ('O=C1/C(=C\C=C\c2ccco2)SC(=S)N1NS(=O)(=O)c1ccccc1', 'UniProt Q07817', 89.9),
  ('CC1=C(C#N)C(=O)N=C(O)/C1=C\c1ccc(-c2ccc(S(N)(=O)=O)cc2)o1 [drawing 84]', 'UniProt Q07817', 98.2),
  ('O=C(CC1C(=O)c2ccccc2S1(=O)=O)NC1=NN(c2ccccc2)C(=O)C1 (stereo not drawn)', 'UniProt Q07817', 65.35),
  ('CCC(c1nnc(SCC(=O)NCCc2ccc(Cl)cc2Cl)o1)N(C)C (stereo not drawn)', 'UniProt Q07817', 101.6),
  ('CC1(C)CC2CC(C)(CN2c2nc(N)c3c(N)nc4c(c3c2C#N)CC(=O)N4C2CCCC2)C1 (stereo not drawn)', 'UniProt Q07817', 114.7),
  ('CN(C)c1ccc(/C=C2\SC(=O)N(CCC(=O)Nc3ccccc3)C2=O)cc1', 'UniProt Q07817', 92.22),
  ('O=C(ON1C(=O)CCC1=O)c1ccc(Cl)cc1Cl', 'UniProt Q07817', 96.73),
  ('Cc1ccc(C)c(S(=O)(=O)Nc2cc(Cl)c3oc(=O)sc3c2)c1', 'UniProt Q07817', 86.74),
  ('Cn1c(/N=C/c2c(O)ccc3ccccc23)nc2ccc(Br)cc21', 'UniProt Q07817', 31.24),
  ('CS(=O)(=O)CS(=O)(=O)NNc1ncc(C(F)(F)F)cc1Cl', 'UniProt Q07817', 104.7),
  ('Oc1ccc(NCc2ccc(Br)cc2)cc1', 'UniProt Q07817', 90.95);

All values here come from patent US20150315211A1.
